Consider the following compounds and their measured Solubility in DMF readings.
Test: Solubility (15° C.)
Format: physicochemical
Conditions: dimethylformamide (DMF)

Recorded results for 2 compounds are shown here.
| smiles data | Solubility in DMF |
| --- | --- |
| CC(C)(N=NC(C)(C)C(=O)NCC1CCNCC1)C(=O)NCC1CCNCC1 | ≤ 1% |
| C=CCNC(=O)C(C)(C)N=NC(C)(C)C(=O)NCC=C | ≥ 10% |

Moving on to the next compound.
Given CC(C)(N=NC(C)(C)C(=O)NCc1ccc(Cl)cc1)C(=O)NCc1ccc(Cl)cc1 , respond with its Solubility in DMF. ≥ 10%
